Numbers sourced from PubChem BioAssay AID2216.

Tested on: Ran GTPase (GTP-bound) - importin-beta complex
Assay: disruptors of Ran-importin-beta complex formation – biochemical, FRET, CFP-Ran, YFP-importin-beta, homogeneous, primary screen (AID 2216)
Conditions: cell-free CFP-Ran/YFP-importin-beta FRET ratio; concentration not given here
In all, about 300,000 compounds went through this assay and about 3,300 (1.1%) were called active. Not shown: some 6% with an inconclusive outcome.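 The calls were made as follows: active = more than half of the replicate wells show a fall in the fluorescence ratio signal beyond about 16% (limit read from the data, passing the limit was not always enough); inconclusive = exactly half of the replicate wells pass the set limit; inactive = fewer than half of replicates pass the limit.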 Only a selection was taken, and actives are over-represented in it overall.
Pick one and only one: YES (active), NO (inactive)

// query // outcome(item) with item = O=c1[nH]snc1-c1c(Cl)cccc1Cl
// result NO

// query // outcome(item) with item = COc1ccc(C2C(C#N)=C(N)Oc3cc(N)ccc32)cc1OC (stereo unspecified)
// result YES

// query // outcome(item) with item = O=C(CSc1ccc(-c2ccc(-n3cccn3)cc2)nn1)Nc1ccc([N+](=O)[O-])cc1
// result NO

// query // outcome(item) with item = COC(=O)c1sc(NC(=O)c2ccc(OC)cc2OC)nc1C
// result NO

// query // outcome(item) with item = O=C(NCCc1c[nH]c2ccccc12)C(=O)NCC1CCCO1 (stereo unspecified)
// result NO

// query // outcome(item) with item = Cc1nc(Nc2ccccc2F)c2nnn(Cc3ccccc3Cl)c2n1
// result YES

// query // outcome(item) with item = O=C1C=C(c2ccccc2)CCC1
// result NO

// query // outcome(item) with item = Cc1onc(C(=O)Nc2ccc3c(c2)OCO3)c1[N+](=O)[O-]
// result NO

// query // outcome(item) with item = COc1cc(C2C(C#N)=C(N)Oc3n[nH]c(-c4ccccn4)c32)cc(OC)c1OC (stereo unspecified)
// result NO

// query // outcome(item) with item = CC(OC(=O)CNC(=O)c1ccco1)C(=O)Nc1ccc(Cl)cn1 (stereo unspecified)
// result NO

// query // outcome(item) with item = O=C(Cc1ccc(-n2c(=O)[nH]c3ccccc3c2=O)cc1)N1CCN(c2cccc(Cl)c2)CC1
// result NO

// query // outcome(item) with item = O=C(NCCS(=O)(=O)NCc1ccc(Cl)cc1)c1ccccc1
// result NO

// query // outcome(item) with item = COc1ccccc1C(=O)NC(=O)COC(=O)c1ccco1
// result NO

// query // outcome(item) with item = Cc1cc(C)c2nc(-c3ccco3)cc(C(=O)O)c2c1
// result NO

// query // outcome(item) with item = Cc1cc(C)cc(NS(=O)(=O)c2ccc(Oc3ncc(C(F)(F)F)cc3Cl)cc2)c1
// result NO

// query // outcome(item) with item = COc1ccccc1C(=O)NC(CCSC)C(=O)N1CCN(C/C=C/c2ccccc2)CC1 (stereo unspecified)
// result NO

// query // outcome(item) with item = N#CCN(C(=O)COC(=O)C1CC2CCCC(C1)C2=O)c1ccccc1 (stereo unspecified)
// result NO

// query // outcome(item) with item = CCOc1ccc(S(=O)(=O)NCCSc2ccccc2)cc1
// result NO

// query // outcome(item) with item = O=C(NC1CCCCC1)c1ccc(-c2ccc(Cl)cc2)o1
// result NO

// query // outcome(item) with item = Cc1cc(C)c2c3c(sc2n1)C(c1ccccc1)C(C#N)=C(N)O3 (stereo unspecified)
// result NO

// query // outcome(item) with item = Cc1sc(NC(=O)c2ccc3ncsc3c2)c(C(N)=O)c1C
// result NO

// query // outcome(item) with item = Cc1cc(/C=C2/SC(=O)N(CC(=O)N3CCCC3)C2=O)c(C)n1C
// result NO

// query // outcome(item) with item = CSc1sc(C)cc1C1C(C#N)=C(N)N(c2cccnc2)C2=C1C(=O)CCC2 (stereo unspecified)
// result YES

// query // outcome(item) with item = N#C/C(=C/c1ccc(N2CCCCC2)o1)C(=O)NCCc1c[nH]c2ccccc12
// result YES

// query // outcome(item) with item = CCN(CC)C(=O)c1sc(NC(=O)c2ccco2)c(C#N)c1C
// result NO

// query // outcome(item) with item = COc1cc(SC)ccc1C(=O)Nc1nc(C)cs1
// result YES

// query // outcome(item) with item = [O-][n+]1ccc(OCc2ccccc2)cc1
// result NO

// query // outcome(item) with item = CC1CC(C)CN(S(=O)(=O)c2cccc3nonc23)C1 (stereo unspecified)
// result NO

// query // outcome(item) with item = CN(C)N1C(N)=C(C#N)C(c2ccc(Br)cc2)C2=C1CCCC2=O (stereo unspecified)
// result NO

// query // outcome(item) with item = Cc1nc(Nc2ccc3c(c2)OCCO3)c2nnn(Cc3ccccc3Cl)c2n1
// result NO

// query // outcome(item) with item = CN1CCN(c2ccc(NC(=O)c3ccc4c(c3)[nH]c(=O)n4Cc3ccc(F)cc3)cc2)CC1
// result NO

// query // outcome(item) with item = CCN(CC(=O)Nc1c(F)cccc1F)C(=O)CN1c2cccc3cccc(c23)S1(=O)=O
// result NO

// query // outcome(item) with item = Cn1nccc1CNC(=O)c1ccnn1C
// result NO

// query // outcome(item) with item = O=C1c2ccccc2C(=O)c2c1cccc2N1CCN(C/C=C/c2ccccc2)CC1
// result NO

// query // outcome(item) with item = Cc1nc(Nc2ccc(S(=O)(=O)N3CCCC3)cc2)c2nnn(Cc3ccccc3)c2n1
// result NO

// query // outcome(item) with item = COC(=O)Cc1ccc(OCC(=O)Nc2ccc(OC(F)(F)F)cc2)cc1
// result NO

// query // outcome(item) with item = COc1ccccc1OCC(=O)Nc1ccccc1C(=O)NC1CC1
// result NO

// query // outcome(item) with item = Cc1cc(C)c2nc(SCCC#N)nc(C)c2c1
// result NO

// query // outcome(item) with item = Cc1cc(C)c(S(=O)(=O)N2CCCC2CNC(=O)c2ccc3c(c2)OCO3)c(C)c1 (stereo unspecified)
// result NO

// query // outcome(item) with item = COC(=O)C1=C(C)OC(N)=C(C#N)C1c1cc(OC)ccc1OC (stereo unspecified)
// result NO

// query // outcome(item) with item = CN(C(=O)c1cc2c(=O)n3ccccc3nc2s1)C1CCCCC1
// result NO

// query // outcome(item) with item = CC1(C)CC(=O)NC=C(c2ccccc2)C1
// result YES

// query // outcome(item) with item = CCOc1ccc2nc(NCCNS(=O)(=O)c3ccccc3)c(C#N)cc2c1
// result YES

// query // outcome(item) with item = CCN1N=C(c2ccccc2)CCC1=O
// result NO

// query // outcome(item) with item = CC(C)Nc1nnc(SC(C)C(=O)N(C)C2CCCCC2)s1 (stereo unspecified)
// result NO

// query // outcome(item) with item = Cc1onc(-c2ccccc2Cl)c1C(=O)N(Cc1ccc(N(C)C)cc1)C(C)C
// result NO
